src = patent US20080102065A1

Kindly state pKd for each of the entries shown.
- system-under-test: T1, huEpoR protein (soluble human erythropoietin receptor) (human, UniProt P19235 25-250, limits assumed)
- T1 construct: also called soluble huEpoR; biotinylated huEpoR
- T1 sequence (looked up): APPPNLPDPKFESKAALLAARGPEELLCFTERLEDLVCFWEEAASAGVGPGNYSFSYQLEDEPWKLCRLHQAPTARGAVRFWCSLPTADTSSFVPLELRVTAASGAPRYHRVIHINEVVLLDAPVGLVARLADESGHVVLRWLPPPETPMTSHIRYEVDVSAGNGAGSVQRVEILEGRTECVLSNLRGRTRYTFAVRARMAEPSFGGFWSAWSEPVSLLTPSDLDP
- test-description: SPR, Biacore T100; scFv-Fc captured on anti-human IgG Fc CM5 chip, EpoR as analyte; 1:1 fit;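 also: measured at 25 °C in HBS-EP buffer with 0.1 mg/ml BSA, flowed at 50 µl/min, 1 min association then dissociation (10 min human, 5 min cyno EpoR)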
Scale explanation: pKd corresponds to minus log10 of a concentration expressed in moles per litre.

For Mxb 13 (clone 13 scFv-Fc protein) (Fc fusion, Tested as scFv-Fc (maxibody) with an Fc derived from human IgG1) VH: QVQLQQSGGGVVQPGRSLRLSCAASGFTFSDYAMHWVRQAPGKGLEWVAVISNHGKSTYYADSVKGRFTISRDNSKHMLYLQMNSLRADDTALYYCARDIALAGDYWGQGTLVTVSA VL: DIQMTQSPSSLSASVGDRVTITCRASQSISSYLNWYQQLPGKVPKLLIYGASKLQSGVPSRFSGSGSGTDFTLTISSLQPEDFATYYCLQDYNYPLTFGPGTRLEIK the binder record lists pKd as 5.98

For Mxb 307 (clone 307 scFv-Fc protein) (Fc fusion, Tested as scFv-Fc (maxibody) with an Fc derived from human IgG1) VH: EVQLVESGGGLVQPGGSLRLSCAVSGFTFSKYWMTWVRQAPGKGLEWVANIKPDGSEKYYVESVKGRFTISRDNAKNSVYLQMNSVRAEDTAVYYCARVSRGGSFSDWGQGTMVTVSS VL: QSVLTQPPSASGSPGQSVTISCTGTSSDVGGYNYVSWYQQHPDKAPRLMIYDVNKRPSGVPDRFSGSKSGNTASLTVSGLQAEDEAHYYCNSYAGSNNWVFGGGTQLTVL the binder record lists pKd as 6.97
